# assay info: refractive index (other wavelength) (dimensionless)
# condition description: 1123 K; 101 kPa; Liquid; Wavelength=632.8 nm; ellipsometry
property measured: refractive index

compound	reported
[Cl-].[K+] [potassium chloride]	1.385
[Cl-].[Na+] [sodium chloride]	1.405
[Cl-].[Cl-].[Cl-].[Gd+3] [gadolinium(III) chloride]	1.664
[Cl][Sm]([Cl])[Cl] [samarium chloride]	1.68

====

# assay info: refractive index (other wavelength) (dimensionless)
# condition description: 1153 K; 101 kPa; Liquid; Wavelength=632.8 nm; ellipsometry
property measured: refractive index

compound	reported
[Cl-].[Cs+] [cesium chloride]	1.415
[Cl-].[Na+] [sodium chloride]	1.402
[Cl][Nd]([Cl])[Cl] [neodymium(III) chloride]	1.689
[Cl][Ce]([Cl])[Cl] [cerium trichloride]	1.688
[Cl-].[K+] [potassium chloride]	1.38
[Cl][Sm]([Cl])[Cl] [samarium chloride]	1.674

====

# assay info: refractive index (other wavelength) (dimensionless)
# condition description: 1093 K; 101 kPa; Liquid; Wavelength=632.8 nm; ellipsometry
property measured: refractive index

compound	reported
[Cl][Nd]([Cl])[Cl] [neodymium(III) chloride]	1.698
[Cl-].[Na+] [sodium chloride]	1.408
[Cl-].[Cs+] [cesium chloride]	1.426
[Cl-].[K+] [potassium chloride]	1.39

====

# assay info: refractive index (other wavelength) (dimensionless)
# condition description: 1133 K; 101 kPa; Liquid; Wavelength=632.8 nm; ellipsometry
property measured: refractive index

compound	reported
[Cl-].[Na+] [sodium chloride]	1.404
[Cl][Ce]([Cl])[Cl] [cerium trichloride]	1.691
[Cl-].[Cs+] [cesium chloride]	1.419
[Cl-].[K+] [potassium chloride]	1.383
[Cl][Nd]([Cl])[Cl] [neodymium(III) chloride]	1.692

====

# assay info: refractive index (other wavelength) (dimensionless); xn = mol fraction of the nth substance listed
# condition description: 1103 K; 100 kPa; Liquid; Wavelength=632.8 nm; ellipsometry; x1 = 0.75
property measured: refractive index

compound	refractive index
[Cl][Sm]([Cl])[Cl] [samarium chloride] + [Cl-].[Na+]	1.648
[Cl][Ce]([Cl])[Cl] [cerium trichloride] + [Cl-].[K+]	1.586
[Cl][Ce]([Cl])[Cl] [cerium trichloride] + [Cl-].[Cs+]	1.623
[Cl][Sm]([Cl])[Cl] [samarium chloride] + [Cl-].[K+]	1.623
[Cl-].[Cl-].[Cl-].[Gd+3] [gadolinium(III) chloride] + [Cl-].[Cs+]	1.603

====

# assay info: refractive index (other wavelength) (dimensionless)
# condition description: 1103 K; 101 kPa; Liquid; Wavelength=632.8 nm; ellipsometry
property measured: refractive index

compound	reported
[Cl-].[K+] [potassium chloride]	1.388
[Cl-].[Na+] [sodium chloride]	1.407
[Cl][Sm]([Cl])[Cl] [samarium chloride]	1.684
[Cl][Ce]([Cl])[Cl] [cerium trichloride]	1.697

====

# assay info: refractive index (other wavelength) (dimensionless); xn = mol fraction of the nth substance listed
# condition description: 1123 K; 100 kPa; Liquid; Wavelength=632.8 nm; ellipsometry; x1 = 0.75
property measured: refractive index

compound	reported
[Cl-].[Cl-].[Cl-].[Gd+3] [gadolinium(III) chloride] + [Cl-].[Cs+]	1.601
[Cl-].[Cl-].[Cl-].[Gd+3] [gadolinium(III) chloride] + [Cl-].[K+]	1.606
[Cl-].[Cl-].[Cl-].[Gd+3] [gadolinium(III) chloride] + [Cl-].[Na+]	1.62
[Cl][Ce]([Cl])[Cl] [cerium trichloride] + [Cl-].[Cs+]	1.619
[Cl][Sm]([Cl])[Cl] [samarium chloride] + [Cl-].[K+]	1.618
[Cl][Ce]([Cl])[Cl] [cerium trichloride] + [Cl-].[K+]	1.583
[Cl][Sm]([Cl])[Cl] [samarium chloride] + [Cl-].[Na+]	1.64
